// provenance: ChEMBL document CHEMBL2034946

Test: Clearance in Sprague-Dawley rat at 10 mg/kg, po
Assay type: ADME, organism-based
Set-up: dose 10 mg/kg, route oral
Conditions: in vivo
Quantity kind: CL/F (L/h/kg)
Express your answer in L/h/kg, writing the number without its unit.

Fill in reported CL/F for this entry: CC1CN(CC(=O)N[C@H]2C3CC4CC2C[C@](C(N)=O)(C4)C3)S(=O)(=O)N(c2c(Cl)cc(Cl)cc2Cl)C1 (mixture of isomers)
0.7

====

Assay: Cmax in Sprague-Dawley rat at 10 mg/kg, po
Assay type: ADME, organism-based
Set-up: dose 10 mg/kg, route oral
Details: in vivo
Quantity kind: Cmax (ng/mL)
Express your answer in ng/mL, writing the number without its unit.

Fill in reported Cmax for this entry: CC1CN(CC(=O)N[C@H]2C3CC4CC2C[C@](C(N)=O)(C4)C3)S(=O)(=O)N(c2c(Cl)cc(Cl)cc2Cl)C1 (mixture of isomers)
3100

====

Assay: Metabolic stability in plasma at 10 uM after 30 mins
Type: ADME, cell-free
Conditions: read-out: Stability
Quantity kind: remaining at 0.5 h, 10 µM (%)
Express your answer in %, writing the number without its unit.

Fill in reported remaining at 0.5 h, 10 µM for this entry: CC1CN(CC(=O)N[C@H]2C3CC4CC2C[C@](C(N)=O)(C4)C3)S(=O)(=O)N(c2c(Cl)cc(Cl)cc2Cl)C1 (mixture of isomers)
100

====

Assay: Cmax in cynomolgus monkey at 10 mg/kg, po
Type: ADME, organism-based, Macaca fascicularis
Parameters: dose 10 mg/kg, route oral
Conditions: in vivo
Quantity kind: Cmax (ng/mL)
Express your answer in ng/mL, writing the number without its unit.

Fill in reported Cmax for this entry: CC1CN(CC(=O)N[C@H]2C3CC4CC2C[C@](C(N)=O)(C4)C3)S(=O)(=O)N(c2c(Cl)cc(Cl)cc2Cl)C1 (mixture of isomers)
6400

====

Molecular target: 11-beta-hydroxysteroid dehydrogenase 1 (Mus musculus)
Sequence (P50172 whole entry): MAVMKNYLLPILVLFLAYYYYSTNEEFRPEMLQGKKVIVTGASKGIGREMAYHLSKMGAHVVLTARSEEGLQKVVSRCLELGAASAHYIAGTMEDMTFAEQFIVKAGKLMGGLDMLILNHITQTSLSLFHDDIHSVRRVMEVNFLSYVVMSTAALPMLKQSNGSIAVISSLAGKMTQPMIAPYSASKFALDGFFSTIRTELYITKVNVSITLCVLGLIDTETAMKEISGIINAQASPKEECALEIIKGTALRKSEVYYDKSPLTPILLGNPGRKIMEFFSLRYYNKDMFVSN
Assay: Inhibition of mouse 11beta-HSD1 expressed in CHO-K1 cells using cortisone as substrate after 3 hrs by HTRF assay
Quantity kind: IC50 (µM)
Express your answer in µM, writing the number without its unit.

Fill in reported IC50 for this entry: NC(=O)[C@]12CC3CC(C1)[C@@H](NC(=O)CN1CCCN(c4ccccc4)S1(=O)=O)C(C3)C2
0.207

Fill in reported IC50 for this entry: NC(=O)[C@]12CC3CC(C1)[C@@H](NC(=O)CN1CCCN(c4c(Cl)cc(Cl)cc4Cl)S1(=O)=O)C(C3)C2
0.004

Fill in reported IC50 for this entry: CC1(C)CN(CC(=O)N[C@H]2C3CC4CC2C[C@](C(N)=O)(C4)C3)S(=O)(=O)N(c2c(Cl)cc(Cl)cc2Cl)C1
0.026
